Measured basal output G0 (log10) accompanies every entry in the list below.
B1: library; the commonest letter at each place (parent)
chain: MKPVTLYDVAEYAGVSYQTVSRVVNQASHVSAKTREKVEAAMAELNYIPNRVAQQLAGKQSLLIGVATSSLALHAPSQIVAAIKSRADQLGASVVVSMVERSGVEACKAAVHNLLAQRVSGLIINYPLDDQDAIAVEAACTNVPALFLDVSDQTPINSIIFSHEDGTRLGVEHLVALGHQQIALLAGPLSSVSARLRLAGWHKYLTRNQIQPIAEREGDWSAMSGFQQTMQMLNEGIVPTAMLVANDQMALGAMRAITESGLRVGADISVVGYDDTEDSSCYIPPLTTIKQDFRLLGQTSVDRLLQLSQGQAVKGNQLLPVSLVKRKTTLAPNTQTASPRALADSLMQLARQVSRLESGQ

variants of: B1; experiment: basal output G0 (YFP, no IPTG) (log10 MEF); higher = higher reporter expression without inducer; details: with IPTG
Just the number, please, no unit after it.

# variant-string, numeric-readout
measured = [
    ("A138T A214V V244L", 2.43),
    ("V301M", 2.32),
    ("R51H", 3.7),
]

Find the recorded basal output G0 (log10) belonging to V9I R255C E259D T336I R355Q and report it.
3.37

I would be grateful if you could share the reported basal output G0 (log10) for "V136E" .
2.46

Which basal output G0 (log10) is reported for this variant? L90Q R101G C140G L169Q K290I T329S
3.06

Query (variant): M42L V66I S93N D132V ; field requested: basal output G0 (log10)
2.55

basal output G0 (log10) lookup needed for S70R V271M , thanks.
2.7

Find the recorded basal output G0 (log10) belonging to "R51C" and report it.
3.91

Given the variant V24L V52M A72T A214V I268V K325Q P332H A337V , what is its reported basal output G0 (log10)?
2.62

Item under review: S70R V96E T154I S158R V238D M254I V264I . Reported basal output G0 (log10)?
4.52

Report basal output G0 (log10) for G121V G261V please.
2.58

Quick one: basal output G0 (log10) of A27T A87T S102G N316I L330P Q352R ?
3.62

# query: basal output G0 (log10) of entry S97T G200C
2.68

I have this variant here, E39D N208D A222V , and I need its recorded basal output G0 (log10).
3.1

Data request, read-out basal output G0 (log10), for S69T I83M
1.02

Name the reported basal output G0 (log10) value associated with the variant "S69F"
2.66

Param item = L56M Q317L ; retrieve measured basal output G0 (log10).
3.96

Please report the recorded basal output G0 (log10) for S70R F161V .
3.01

Any idea what basal output G0 (log10) was measured for E11K A67P F161S A186V M230L D344N ?
3.55

# lookup: basal output G0 (log10) of "L296R"
2.99

Quick one: basal output G0 (log10) for V95M A337T ?
2.13
